// compounds with IC50 on Platelet-derived growth factor receptor beta (Homo sapiens, UniProt P09619), multi-source literature

compound: NC(=O)c1coc(-c2cc(Oc3cccc(NC(=O)Nc4ccc(Cl)c(C(F)(F)F)c4)c3)ncn2)n1
IC50: ≤ 10000 nM
--
compound: CCn1cc2ncc(N[C@@H](C)c3cccc(NC(=O)c4cc(Cl)c(Cl)s4)c3)nc2n1
IC50: < 300 nM
--
compound: Cc1cncc(C(=O)Nc2cccc([C@H](C)Nc3cnc4cn(CCF)nc4n3)c2)c1
IC50: < 300 nM
--
compound: COC(=O)C1CCN(C(=O)c2cc3nccc(Oc4ccc(NC(=O)Nc5cc(C)ccc5F)c(F)c4)c3s2)C1 (centres unmarked)
IC50: 17 nM

Input line: Tell us which IC50 value is on record for Cc1ccc(C(=O)N[C@H]2CCCC[C@@H]2O)cc1NC(=O)c1cnc(-c2ccccc2)o1
Output line: 6.1 nM

Input line: Fill in IC50 for record Nc1ccc(/C(F)=C/c2cc(C(=O)N[C@H]3CCCC[C@@H]3O)ccc2F)cn1
Output line: 35 nM

Input line: Please give measured IC50 of the following entry: CC[C@H](Nc1cnc2cn(CC)nc2n1)c1cccc(NC(=O)c2cncc(C)c2)c1
Output line: ≥ 1000 nM

Input line: Report IC50, nothing else, for this compound: O=C(Nc1cccc(Oc2cc(-c3nnco3)ncn2)c1)Nc1cc(CN2CCOCC2)cc(C(F)(F)F)c1
Output line: ≤ 10000 nM

* * *

Several reports have described IC50 for Platelet-derived growth factor receptor beta (Homo sapiens, UniProt P09619); a selection of those results is presented here.

Worked set:
mol: Cn1cc(-c2cc(Oc3cc(F)c(NC(=O)C4(C(=O)Nc5ccccc5)CC4)cc3F)ccn2)cn1
measurementTarget: Platelet-derived growth factor receptor beta (Homo sapiens, UniProt P09619)
IC50: < 10000 nM
--
mol: CCn1cc2ncc(N[C@@H](C)c3cc(NC(=O)Cc4ccc(C5CCC5)nc4)ccc3C)nc2n1
measurementTarget: Platelet-derived growth factor receptor beta (Homo sapiens, UniProt P09619)
IC50: ≥ 1000 nM
--
mol: Cc1cncc(C(=O)Nc2cccc([C@H](C)Nc3cnc4ccoc4c3)c2)c1
measurementTarget: Platelet-derived growth factor receptor beta (Homo sapiens, UniProt P09619)
IC50: 300 to 1000 nM
--
mol: Cn1cc(-c2cc(Oc3cc(F)c(NC(=O)C4(C(=O)Nc5ccc(F)cc5)CC4)cc3Cl)ccn2)cn1
measurementTarget: Platelet-derived growth factor receptor beta (Homo sapiens, UniProt P09619)
IC50: < 10000 nM
--
mol: Cc1cncc(C(=O)Nc2cccc([C@H](C)Nc3cnc4ccn(C)c4n3)c2)c1
measurementTarget: Platelet-derived growth factor receptor beta (Homo sapiens, UniProt P09619)
IC50: < 300 nM

Input line: Specify the recorded IC50 for O=C(Nc1ccc(C#Cc2ccc3nc(NC(=O)Nc4cc(C(F)(F)F)ccc4F)cn3n2)cc1)Nc1cc(C(F)(F)F)ccc1F , system: Platelet-derived growth factor receptor beta (Homo sapiens, UniProt P09619).
Output line: > 10000 nM

Input line: Using Platelet-derived growth factor receptor beta (Homo sapiens, UniProt P09619) as the test system, report measured IC50 of Cc1cc(C(=O)Nc2cccc([C@H](C)Nc3cnc4cnn(C)c4n3)c2)ccc1C(=O)OCCN1CCOCC1 .
Output line: < 300 nM
